Tested on: B. Anthracis
Test: microbe, parasite or virus in culture
Assay type: cell-based
Settings: Bacillus anthracis, 30 μM; read-out: B. Anthracis 30 μM (growth inhibition)
inhibition at 30 µM values for the molecules below.

{"columns": ["MOLECULE", "STUDY SYSTEM", "inhibition at 30 µM, %"],
 "data": [
  ["O=C1NC(=S)NC(=O)C1=Cc1ccc(-c2ccc(Cl)cc2)o1 [Cmpd 15]", "B. Anthracis", 42.2],
  ["O=C1Nc2ccc(Br)cc2/C1=C1/SC(=S)N(C(Cc2ccccc2)C(=O)O)C1=O (centres unmarked) [Cmpd 13]", "B. Anthracis", 90.1],
  ["O=C(O)C(Cc1ccccc1)N1C(=O)/C(=C\\c2ccc(-c3ncc(Cl)cc3Cl)o2)NC1=S (centres unmarked) [Cmpd 72]", "B. Anthracis", 98.1],
  ["O=C1NC(=S)N(c2cccc(Cl)c2)C(=O)/C1=C/c1ccc(-c2cc(C(=O)O)ccc2Cl)o1 [Cmpd 25]", "B. Anthracis", -3.09],
  ["O=C(O)[C@@H](Cc1ccccc1)N1C(=O)/C(=C\\c2ccc(-c3ccc(Cl)c(Cl)c3)o2)NC1=S [Cmpd 47]", "B. Anthracis", 107],
  ["O=C1NC(=S)NC(=O)C1=Cc1ccc(-c2cccc(C(=O)O)c2)o1 [Cmpd 28]", "B. Anthracis", -13.1],
  ["O=C(O)[C@H](Cc1ccccc1)N1C(=O)/C(=C\\c2ccc(-c3cc(Cl)cc(Cl)c3)o2)NC1=S [Cmpd 51]", "B. Anthracis", 99.3],
  ["O=C(O)C(Cc1ccccc1)N1C(=O)/C(=C\\c2ccc(Cl)c(Cl)c2)NC1=S (centres unmarked) [Cmpd 71]", "B. Anthracis", -17.3]
]}

* * *

System: S. MRSA
Assay: microbe, parasite or virus in culture
Assay type: cell-based
Conditions: Staphylococcus aureus, MRSA, 30 μM; read-out: S. MRSA 30 μM (growth inhibition)
# inhibition at 30 µM annotations

{"columns": ["COMPOUND", "UNITS TEXT", "inhibition at 30 µM"],
 "data": [
  ["Cc1oc(=O)oc1COC(=O)C(Cc1ccccc1)N1C(=O)/C(=C\\c2ccc(-c3ccc(Cl)c(Cl)c3)o2)NC1=S (centres unmarked)", "%", -3.34],
  ["O=C1NC(=S)N(c2ccc(Cl)cc2)C(=O)/C1=C/c1ccc(-c2ccccc2C(=O)O)o1", "%", 92.4],
  ["COc1ccc(-c2ccc(/C=C3/NC(=S)N([C@@H](Cc4ccccc4)C(=O)O)C3=O)o2)cc1Cl", "%", 82.2],
  ["COc1ccc(-c2nc(N3CCOCC3)c3sc(=O)n(-c4ccccc4)c3n2)cc1OC", "%", 1.47],
  ["CCN1C(=O)NC(=O)/C(=C\\c2ccc(-c3ccc(Cl)c(C(=O)O)c3)o2)C1=O", "%", -4.41],
  ["O=C(O)C(Cc1ccccc1)N1C(=O)/C(=C\\c2ccc(-c3ccnc(Cl)c3)o2)NC1=S (centres unmarked)", "%", -1.4],
  ["CCc1ccccc1N1C(=O)/C(=C/c2ccc(-c3cc(C(=O)O)ccc3Cl)o2)C(=O)NC1=S", "%", -5.88],
  ["O=C1NC(=S)NC(=O)C1=Cc1ccc(-c2cccc(C(=O)O)c2)o1", "%", -3.68]
]}

* * *

Tested on: B. Anthracis
Assay: microbe, parasite or virus in culture
Type: cell-based
Conditions: Bacillus anthracis, 30 μM; read-out: B. Anthracis 30 μM (growth inhibition)
Short version: inhibition at 30 µM at least 90% is TRUE, less is FALSE.

{"columns": ["COMPOUND", "STUDY SYSTEM", "CLASS NAME"],
 "data": [
  ["CC(=O)C(Cc1ccccc1)N1C(=O)/C(=C2/C(=O)Nc3cc(Cl)c(Cl)cc32)NC1=S (centres unmarked)", "B. Anthracis", "TRUE"],
  ["COc1ccc(-c2nnc(-c3ccccc3)o2)cc1S(=O)(=O)Nc1cc2c(cc1C#N)OCO2", "B. Anthracis", "FALSE"],
  ["CCOc1cccc(N2C(=O)/C(=C/c3ccc(-c4cc(C(=O)O)ccc4Cl)o3)C(=O)NC2=S)c1", "B. Anthracis", "FALSE"],
  ["CCOC(=O)C(Cc1ccccc1)N1C(=O)/C(=C\\c2ccc(-c3ccc(Cl)c(Cl)c3)o2)NC1=S (centres unmarked)", "B. Anthracis", "FALSE"],
  ["CCc1ccccc1N1C(=O)/C(=C/c2ccc(-c3cc(C(=O)O)ccc3Cl)o2)C(=O)NC1=S", "B. Anthracis", "FALSE"],
  ["N#CNC(=O)C(Cc1ccccc1)N1C(=O)/C(=C\\c2ccc(-c3ccc(Cl)c(Cl)c3)o2)NC1=S (centres unmarked)", "B. Anthracis", "TRUE"],
  ["O=C(O)C(Cc1ccccc1)N1C(=O)/C(=C\\c2ccc(-c3ccccc3)o2)NC1=S (centres unmarked)", "B. Anthracis", "FALSE"],
  ["CC(C)C(C(=O)O)N1C(=O)/C(=C2/C(=O)Nc3ccccc32)SC1=S (centres unmarked)", "B. Anthracis", "FALSE"],
  ["O=C1NC(=S)NC(=O)C1=Cc1ccc(Br)s1", "B. Anthracis", "FALSE"],
  ["O=C(O)C(Cc1ccccc1)N1C(=O)/C(=C\\c2ccc(-c3ccc(Br)cc3)o2)NC1=S (centres unmarked)", "B. Anthracis", "TRUE"],
  ["CCN1C(=O)NC(=O)/C(=C\\c2ccc(-c3ccc(Cl)c(C(=O)O)c3)o2)C1=O", "B. Anthracis", "FALSE"],
  ["COc1ccc(-c2ccc(/C=C3/NC(=S)N(C(Cc4ccccc4)C(=O)O)C3=O)s2)cc1 (centres unmarked)", "B. Anthracis", "TRUE"],
  ["O=C(O)C(Cc1ccccc1)N1C(=O)/C(=C\\c2ccc(-c3ccc(Cl)c(Cl)c3)s2)NC1=S (centres unmarked)", "B. Anthracis", "TRUE"]
]}

* * *

Test system: B. Anthracis
Assay: microbe, parasite or virus in culture
Assay type: cell-based
Conditions: Bacillus anthracis, 30 μM; read-out: B. Anthracis 30 μM (growth inhibition)
Catalogue of inhibition at 30 µM values

{"columns": ["COMPOUND", "inhibition at 30 µM, %"],
 "data": [
  ["O=C1NC(=S)NC(=O)C1=Cc1ccc(Br)cc1 [Cmpd 16]", 0],
  ["O=C1NC(=S)NC(=O)C1=Cc1ccc(-c2cccc(Cl)c2)o1 [Cmpd 14]", 27.2],
  ["CCC(C(=O)O)N1C(=O)/C(=C\\c2ccc(-c3ccc(Cl)c(Cl)c3)o2)NC1=S (centres unmarked) [Cmpd 44]", 94],
  ["O=C1Nc2cc(Cl)c(Br)cc2/C1=C1/NC(=S)N(C(Cc2ccccc2)C(=O)O)C1=O (centres unmarked) [Cmpd 32]", 98.8],
  ["O=C(O)C(Cc1ccccc1)N1C(=O)/C(=C\\c2ccc(-c3ccc(Cl)cc3)s2)NC1=S (centres unmarked) [Cmpd 35]", 100],
  ["NC(=O)C(Cc1ccccc1)N1C(=O)/C(=C\\c2ccc(-c3ccc(Cl)c(Cl)c3)o2)NC1=S (centres unmarked) [Cmpd 54]", 93],
  ["Cc1oc(=O)oc1COC(=O)C(Cc1ccccc1)N1C(=O)/C(=C\\c2ccc(-c3ccc(Cl)c(Cl)c3)o2)NC1=S (centres unmarked) [Cmpd 64]", -1.34],
  ["O=C1NC(=O)C(=Cc2ccc(Br)o2)C(=O)N1 [Cmpd 19]", 12.9],
  ["O=C1NC(=O)C(=Cc2ccc(Br)s2)C(=O)N1 [Cmpd 18]", 0],
  ["COc1ccc(-c2ccc(/C=C3/NC(=S)N([C@@H](Cc4ccccc4)C(=O)O)C3=O)o2)cc1Cl [Cmpd 52]", 95.5],
  ["O=C1NC(=S)S/C1=C/c1ccc(-c2ccc3c(c2)C(=O)NC3=O)o1 [Cmpd 3]", 87.5],
  ["COc1ccc(N2C(=O)/C(=C/c3ccc(Br)s3)C(=O)NC2=S)cc1 [Cmpd 11]", 47.3],
  ["O=C1Nc2ccc(Br)cc2/C1=C1/NC(=S)N(C(Cc2ccccc2)C(=O)O)C1=O (centres unmarked) [Cmpd 31]", 88],
  ["O=C(O)C(Cc1ccccc1)N1C(=O)/C(=C\\c2ccc(-c3ccc(F)cc3)s2)NC1=S (centres unmarked) [Cmpd 34]", 98.8],
  ["CCC(C(=O)NS(C)(=O)=O)N1C(=O)/C(=C\\c2ccc(-c3ccc(Cl)c(Cl)c3)o2)NC1=S (centres unmarked) [Cmpd 59]", 19.6],
  ["O=C1NC(=O)N(Cc2ccc(F)cc2)C(=O)/C1=C/c1ccc(Br)s1 [Cmpd 10]", 68.2],
  ["COc1ccc(-c2nc(N3CCOCC3)c3sc(=O)n(-c4ccccc4)c3n2)cc1OC [Cmpd 8]", 35.5],
  ["O=C(O)C(Cc1ccccc1)N1C(=O)/C(=C\\c2ccc(-c3ccc(Br)c(Cl)c3)o2)NC1=S (centres unmarked) [Cmpd 40]", 98.1],
  ["CN1C(=O)C(Cc2ccc(-c3ccc(Cl)c(Cl)c3)o2)C(=O)N(C)C1=O [Cmpd 23]", 10.7],
  ["O=C(O)C(Cc1ccccc1)N1C(=O)/C(=C\\c2ccc(-c3ccc(Br)c(Cl)c3)s2)NC1=S (centres unmarked) [Cmpd 41]", 94.5],
  ["O=C(O)C(Cc1ccccc1)N1C(=O)/C(=C\\c2ccc(Br)s2)NC1=S (centres unmarked) [Cmpd 37]", 0],
  ["O=C1NC(=S)NC(=O)C1=Cc1ccc(-c2ccc(F)cc2)o1 [Cmpd 20]", 28.7],
  ["CS(=O)(=O)NC(=O)C(Cc1ccccc1)N1C(=O)/C(=C\\c2ccc(-c3ccc(Cl)c(Cl)c3)o2)NC1=S (centres unmarked) [Cmpd 57]", 90.2],
  ["O=C1NC(=S)N(c2ccc(Cl)cc2)C(=O)/C1=C/c1ccc(-c2ccccc2C(=O)O)o1 [Cmpd 26]", 100],
  ["O=C1Nc2ccccc2/C1=C1/SC(=S)N(C(Cc2ccccc2)C(=O)O)C1=O (centres unmarked) [Cmpd 6]", 92.6],
  ["O=C(O)C(Cc1ccccc1)N1C(=O)/C(=C\\c2ccc(-c3ccc(Br)cc3)s2)NC1=S (centres unmarked) [Cmpd 36]", 96.7],
  ["O=C(O)[C@H](Cc1ccccc1)N1C(=O)/C(=C\\c2ccc(-c3ccc(Cl)c(Cl)c3)o2)NC1=S [Cmpd 48]", 107],
  ["O=C(NS(=O)(=O)C(F)(F)F)C(Cc1ccccc1)N1C(=O)/C(=C\\c2ccc(-c3ccc(Cl)c(Cl)c3)o2)NC1=S (centres unmarked) [Cmpd 58]", 97.4],
  ["O=C1NC(=S)NC(=O)C1=Cc1ccc(-c2ccc(Br)c(Cl)c2)o1 [Cmpd 9]", 88.4],
  ["O=C(O)CC(C(=O)O)N1C(=O)/C(=C2/C(=O)Nc3ccc(Br)cc32)SC1=S (centres unmarked) [Cmpd 21]", 14.2],
  ["O=C(O)C(Cc1ccccc1)N1C(=O)/C(=C\\c2ccc(-c3ccc(I)cc3)o2)NC1=S (centres unmarked) [Cmpd 45]", 96.4],
  ["O=C(O)C(Cc1ccccc1)N1C(=O)/C(=C\\c2ccc(-c3ccnc(Cl)c3)o2)NC1=S (centres unmarked) [Cmpd 70]", 4.62]
]}

Data credit: patent US20140073639A1
